The reported numbers originate from paper PMC4176333.

- MEASURED TARGET: T1, Hera RecA_N (UniProt Q72GF3 1-207)
- T1 sequence: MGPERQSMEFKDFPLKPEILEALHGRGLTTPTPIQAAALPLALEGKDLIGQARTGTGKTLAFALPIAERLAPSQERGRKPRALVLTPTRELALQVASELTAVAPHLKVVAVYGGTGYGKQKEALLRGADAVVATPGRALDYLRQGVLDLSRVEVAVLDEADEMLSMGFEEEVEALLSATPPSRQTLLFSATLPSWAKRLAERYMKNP
- PROCEDURE TEXT: fluorescence intensity titration
MEASURED QUANTITY: Kd (nM)
Number only, in nM; omit the unit.

Fill in reported Kd for this entry: 14mer dsRNA (dsRNA) RNA 1: GGGCGGGCCCGCCC RNA 2: GGGCGGGCCCGCCC
889
